- Assay explanation: Lipophilicity, logD of compound at pH 7.4
- Format: physicochemical
- Conditions used: buffer
Give logD for every item shown.
Lab note: record just the number, no unit beside it.

[in] Give the measured logD for "CN1CCCN(c2cnc(NCc3c(F)ccc4c3CCO4)n3cnnc23)C1=O"
[out] 1.2

[in] Input "O=C([C@H]1C[C@@H]1c1cccc(N2CCCCC2=O)c1)N1CCN(C2CCC2)CC1" , output reported logD.
[out] 1.7

[in] Complete the entry with logD for "C[C@]1(CS(=O)(=O)N2CC=C(C#Cc3cccc(N4CCCCC4=O)c3)CC2)NC(=O)NC1=O"
[out] 1

[in] Give logD for "CN1CCN(c2ccc(F)cc2CN2CCN(c3ccc(N4CCOCC4)cc3)C2=O)CC1"
[out] 2.1

[in] Given "Cc1nc(Nc2cccc(N3CCCN(C)C3=O)n2)sc1-c1cc2c(c(S(C)(=O)=O)c1)C(=O)N([C@@H](C)C1CC1)C2" , respond with its logD.
[out] 3.5

[in] Please give the documented logD of "O=C([C@@H]1C[C@H]1c1cccc(N2CCCC2=O)c1)N1CCN(C2CCC2)CC1"
[out] 2

[in] Return value of logD for input COCC(=O)N1CCC(COc2ccc(N3CCCCC3=O)cc2)C1 (centres undefined) , no commentary.
[out] -0.1

[in] Entry "O=C1CCCCN1c1cnc(NCc2c(F)ccc3c2CCO3)n2cnnc12" needs its logD filled in; supply it.
[out] 1.3
